- Test system: SEM cells
- protocol.text: cell viability relative to DMSO control; higher = less cytotoxic
- protocol.conditions: RPMI 5 mM glucose + 10% dialyzed FBS; 48 h; 0.0211 µM
measurement.name: cell viability

> print(dat)
                                   molecule  assay.target  result
1  O=C(O)c1ccc(-n2nc(-c3ccccc3O)nc2-c2ccccc2O)cc1     SEM cells   98.1%
2  CC(=O)NC(CS)C(=O)O (configuration not stated)     SEM cells   65.5%
3  C[C@@]12O[C@@H](C[C@]1(O)CO)n1c3ccccc3c3c4c(c5c6ccccc6n2c5c31)CNC4=O     SEM cells    106%
4  CN1\C(=C(\O)C2=C(C=CS2)[S+]1([O-])=O)C(=O)NC3=CC=CC=N3     SEM cells    108%
5  COc1cc(Nc2ncc(F)c(Nc3ccc4c(n3)NC(=O)C(C)(C)O4)n2)cc(OC)c1OC     SEM cells   95.2%
6  C[C@@H]1COCCN1C\2=C\C(=O)N\3CC[C@H](N(CC4=CN=CC(=C4)Cl)C3=N2)C(F)(F)F     SEM cells   90.9%
7  CC(C)(C)C(=O)Oc1ccc([S+](=O)([O-])Nc2ccccc2C(=O)NCC(=O)O)cc1     SEM cells    123%

The values you see were collected from the supplement of paper PMC11451515.
